Recorded measurements of TGI, one per entry
test system: BT-549 breast; assay: NCI tumour cell line growth inhibition, 48 h

// known answers, use as guide
| molecule | TGI |
| --- | --- |
| CSCCC(NC(=O)C(Cc1c[nH]c2ccccc12)NC(=O)CCNC(=O)OC(C)(C)C)C(=O)NC(CC(=O)O)C(=O)NC(Cc1ccccc1)C(N)=O (stereo not given) | > 50 µM |
| Cc1cc(C)c(-c2c(O)c(Br)c(-c3c(C)cc(C)c(Br)c3C)c(O)c2Br)c(C)c1Br | 10.5 µM |
| CCOC(=O)c1cnc2n(c1=O)[C@H]1CCCC[C@@H]1N2 | > 100 µM |
| O=C(O)CCN1C(=S)CSC1=S | > 100 µM |

Prompt: Any idea what its TGI is? The molecule is C#CCn1c(I)cc2c(c1=O)COC(=O)[C@]2(O)CC
Response: > 100 µM
